procedure.details: in vivo
measurement.conditions: male, CD1, mouse, po, 30 mg/kg
measured.property: Cmax (ng/mL)

Reference set (5 entries):
chem_smiles=Cc1n[nH]c2nc(-c3ccc(NS(=O)(=O)c4cc(Cl)ccc4F)cc3)nc(NCCN(C)CCOC(=O)C(C)C)c12 unit_label=ng/mL result=1740
chem_smiles=Cc1n[nH]c2nc(-c3ccc(NS(=O)(=O)c4cc(F)ccc4F)c(F)c3)nc(NCCN(C)C)c12 unit_label=ng/mL result=621
chem_smiles=Cc1n[nH]c2nc(-c3ccc(NS(=O)(=O)c4ccccn4)cc3)nc(NCCN(C)C)c12 unit_label=ng/mL result=45.1
chem_smiles=COc1ccc(F)c(S(=O)(=O)Nc2ccc(-c3nc(NCCN(C)CCO)c4c(C)n[nH]c4n3)cc2)c1 unit_label=ng/mL result=16.8
chem_smiles=CCC(=O)OCCN(C)CCNc1nc(-c2ccc(NS(=O)(=O)c3cc(Cl)ccc3F)cc2)nc2[nH]nc(C)c12 unit_label=ng/mL result=523

I: Cc1n[nH]c2nc(-c3ccc(NS(=O)(=O)c4cc(Cl)ccc4F)c(F)c3)nc(NCCN(C)C)c12
II: Cc1n[nH]c2nc(-c3ccc(NS(=O)(=O)c4cc(Cl)ccc4F)c(F)c3)nc(OC3CCN(C(C)C)CC3)c12
Quick check, higher Cmax between I and II ? Kindly give the label for the entry you pick.
II
(II: 4020 ng/mL, I: 2340 ng/mL)
